# Measured target: calf thymus/mouse ribonucleotide reductase (mammalian RR) (Bos taurus)
# Sequence (Q32LP1 1-791): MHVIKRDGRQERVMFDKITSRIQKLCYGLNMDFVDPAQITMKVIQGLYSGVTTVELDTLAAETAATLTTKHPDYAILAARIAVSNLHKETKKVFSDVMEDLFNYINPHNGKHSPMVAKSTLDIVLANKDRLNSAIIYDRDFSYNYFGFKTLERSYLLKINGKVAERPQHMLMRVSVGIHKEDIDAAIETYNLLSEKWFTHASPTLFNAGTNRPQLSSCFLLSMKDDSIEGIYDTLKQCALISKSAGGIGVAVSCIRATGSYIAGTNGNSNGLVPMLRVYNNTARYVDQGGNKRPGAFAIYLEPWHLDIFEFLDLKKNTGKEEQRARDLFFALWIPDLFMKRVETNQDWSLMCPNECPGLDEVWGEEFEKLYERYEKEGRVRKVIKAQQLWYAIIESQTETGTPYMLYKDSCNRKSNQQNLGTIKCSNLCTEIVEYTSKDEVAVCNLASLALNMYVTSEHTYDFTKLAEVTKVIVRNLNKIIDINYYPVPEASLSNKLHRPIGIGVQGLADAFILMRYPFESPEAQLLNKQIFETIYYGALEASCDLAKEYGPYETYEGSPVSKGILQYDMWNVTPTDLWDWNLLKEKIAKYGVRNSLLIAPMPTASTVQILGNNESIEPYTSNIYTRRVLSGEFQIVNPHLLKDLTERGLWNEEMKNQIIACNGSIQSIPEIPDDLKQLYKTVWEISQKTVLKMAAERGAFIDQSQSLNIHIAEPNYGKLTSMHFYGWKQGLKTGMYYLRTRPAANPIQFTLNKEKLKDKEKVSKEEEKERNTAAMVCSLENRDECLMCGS
# Experimental protocol: biochemical
Ends that are not written are not given here.
Catalogue of IC50 values
Readout name: IC50

>>> print(df.to_string())
                                substance     meas_value
0  Ac-FTLAADF [Peptide 17, Ac- (FTLAADF)]  286 to 336 µM
1  Ac-FSLDADF [Peptide 11, Ac- (FSLDADF)]    40 to 42 µM
2     Ac-TLDADF [Peptide 6, Ac- (TLDADF)]       > 400 µM

FYI, the data here is from patent US5459063A.
